# target system: Bile acid receptor (Homo sapiens)
# measurement description: qHTS assay for small molecule agonists of farnesoid X receptor signaling (AID 588527);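 also: series mostly up to about 77 µM; 0% = vehicle basal and 100% = reference agonist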
# setup conditions: HEK293T FXR-UAS-bla, beta-lactamase ratio, 16 h; active compounds read high
Records with an inconclusive call do not appear.
Would you mind telling me the reported activation of each entry?
Report the figure in % without appending any unit label.

Record request: activation value, item N[C@@H](Cc1ccc(O)c(O)c1)C(=O)O 1.53

Record request: activation value, item O=c1c(O)c(-c2ccc(O)cc2O)oc2cc(O)cc(O)c12 -2.26

Record request: activation value, item COC(=O)CCC(=O)OC 2.67

Record request: activation value, item CS(C)=O -2.1

Record request: activation value, item OCCO 1.31

Record request: activation value, item CC(C=CC1=C(C)CCCC1(C)C)=CC=CC(C)=CC(=O)Nc1ccc(O)cc1 2.75

Record request: activation value, item CCOC(=O)c1ccccc1N -0.579

Record request: activation value, item CC=O -1.84

Record request: activation value, item NCCO/C=C/[C@H](N)C(=O)O 4.46

Record request: activation value, item COC(=O)c1ccc(C)cc1 -0.0429

Record request: activation value, item CC(C)COC(=O)c1ccccc1C(=O)OCC(C)C -1.69

Record request: activation value, item Cc1cc(O)c2c(c1)C(=O)c1cccc(O)c1C2=O -2.98

Record request: activation value, item CCCCCCCCCCCCCc1ccccc1 -1.99

Record request: activation value, item O=Cc1ccccc1 -1.64

Record request: activation value, item C/C=C/C=C/CCCCCCCO -0.999
